- Tested on: Psudomonas aeruginosa A3
- Assay Protocol: Antimicrobial activity, MIC by agar dilution method (Psudomonas aeruginosa A3)
- Format: cell-based
- Condition Details: agar dilution method, Muller-Hinton medium; read-out: MIC (Psudomonas aeruginosa A3)
Measured Parameter: MIC

Some molecules with known MIC results, for comparison:
Molecule: O=CNC=Cc1ccccc1O [Compound 12, (2-formamidovinyl)-2-hydroxybenzene]
Experimental System: Psudomonas aeruginosa A3
Result: > 50 µg/mL
--
Molecule: COc1ccc(OC)c(C=CNC=O)c1
Experimental System: Psudomonas aeruginosa A3
Result: > 100 µg/mL
--
Molecule: COc1ccc(O)c(C=CNC=O)c1
Experimental System: Psudomonas aeruginosa A3
Result: > 50 µg/mL

Next:
Problem: Requested read-out: MIC. Entry: O=CNC=Cc1cc(Br)ccc1O
Result: > 50 µg/mL
